// data source = ChEMBL document CHEMBL1961873

- test-target: Maternal embryonic leucine zipper kinase (Homo sapiens) (UniProt Q14680);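 also: reported figure is the mean percent inhibition of MELK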
- Sequence (Q14680 whole entry, looked up): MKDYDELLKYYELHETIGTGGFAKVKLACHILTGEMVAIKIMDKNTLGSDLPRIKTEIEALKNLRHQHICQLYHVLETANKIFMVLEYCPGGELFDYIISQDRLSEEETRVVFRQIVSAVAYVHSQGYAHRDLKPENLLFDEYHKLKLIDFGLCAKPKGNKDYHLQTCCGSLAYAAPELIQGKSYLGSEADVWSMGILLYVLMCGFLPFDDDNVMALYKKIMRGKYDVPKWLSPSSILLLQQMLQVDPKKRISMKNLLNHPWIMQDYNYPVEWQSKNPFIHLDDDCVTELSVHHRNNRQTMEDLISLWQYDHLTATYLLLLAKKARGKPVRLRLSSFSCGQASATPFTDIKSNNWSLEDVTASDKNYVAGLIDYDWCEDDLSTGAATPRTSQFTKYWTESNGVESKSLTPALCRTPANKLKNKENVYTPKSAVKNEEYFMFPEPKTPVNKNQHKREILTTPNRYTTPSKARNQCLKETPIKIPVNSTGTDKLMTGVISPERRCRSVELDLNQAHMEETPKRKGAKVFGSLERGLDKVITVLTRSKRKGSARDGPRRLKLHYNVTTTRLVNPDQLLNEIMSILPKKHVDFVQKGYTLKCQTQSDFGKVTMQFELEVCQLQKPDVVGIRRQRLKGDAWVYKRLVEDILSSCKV
- particulars: at 0.1 µM
Catalogue of molecules with associated inhibition
Respond numerically; units are % and should not be typed.

smiles-notation	test-target	inhibition, %
CCS(=O)(=O)c1ccc(OC)c(Nc2ncc(-c3cccc(C(C)=O)c3)o2)c1	Maternal embryonic leucine zipper kinase (Homo sapiens) (UniProt Q14680)	2.17
O=C(O[C@H]1CN[C@H](C#Cc2cc3ncnc(Nc4ccc5c(cnn5Cc5ccccc5)c4)c3s2)C1)N1CCOCC1	Maternal embryonic leucine zipper kinase (Homo sapiens) (UniProt Q14680)	-2.54

[Q] Endpoint output: inhibition of Cc1ccc(-c2cc3c(NC(=O)C4CC4)ncnc3o2)cc1 . Value?
[A] 2.47

[Q] Endpoint output: inhibition of CN(c1ccc(NC(=O)NCCN2CCOCC2)cc1)c1ccnc(Nc2ccc(CS(C)(=O)=O)cc2)n1 . Value?
[A] 2.36

[Q] Endpoint output: inhibition of N#Cc1ccc2c(-c3ccnc(NC4CC4)n3)c(-c3ccc(F)cc3)nn2c1 . Value?
[A] -0.07

###

- test-target: Interleukin-1 receptor-associated kinase 4 (Homo sapiens) (UniProt Q9NWZ3);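 also: mean inhibition values, from the GSK PKIS dataset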
- Sequence (whole entry): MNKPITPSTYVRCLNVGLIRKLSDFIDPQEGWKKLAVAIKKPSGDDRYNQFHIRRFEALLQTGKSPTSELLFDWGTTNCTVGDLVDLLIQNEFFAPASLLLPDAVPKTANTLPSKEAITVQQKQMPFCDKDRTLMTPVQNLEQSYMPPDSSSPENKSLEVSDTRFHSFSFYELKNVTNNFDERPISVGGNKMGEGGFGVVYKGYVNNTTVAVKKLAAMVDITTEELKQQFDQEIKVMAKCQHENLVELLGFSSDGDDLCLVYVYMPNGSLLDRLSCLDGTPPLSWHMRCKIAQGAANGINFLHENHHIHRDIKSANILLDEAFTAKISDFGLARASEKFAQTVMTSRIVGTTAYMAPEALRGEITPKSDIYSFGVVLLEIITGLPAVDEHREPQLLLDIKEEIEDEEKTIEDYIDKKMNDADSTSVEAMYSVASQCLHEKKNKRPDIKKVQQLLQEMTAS
- particulars: at 1 µM
Classification field: true = inhibition at or over 2%; false = inhibition under 2%.

Worked examples follow.
smiles-notation	class-assignment
CNC(=O)c1ncccc1Nc1nc(Nc2cc3c(cc2OC)CCCN3C(=O)CN(C)C)nc2[nH]ccc12	true
COC(=O)Nc1nc2ccc(Oc3ccc(NC(=O)Nc4cc(C(F)(F)F)ccc4F)cc3)cc2s1	false
NS(=O)(=O)c1ccc(N/N=C2\C(=O)Nc3cccc(CCc4ccncc4)c32)cc1	false

[Q] Determine whether measured inhibition meets or exceeds 2% for c1ccc(-c2n[nH]cc2-c2ccnc(-c3ccc(OCCn4ccnc4)cc3)c2)nc1
[A] false

[Q] Determine whether measured inhibition meets or exceeds 2% for CS(=O)(=O)CCNCc1ccc(-c2ccc3ncnc(Nc4ccc(OCc5cccc(C(F)(F)F)c5)cc4)c3c2)o1
[A] true

[Q] Determine whether measured inhibition meets or exceeds 2% for O=C(O[C@H]1CN[C@H](C#Cc2cc3ncnc(Nc4ccc5c(ccn5Cc5cc(F)ccc5F)c4)c3s2)C1)N1CCOCC1
[A] true

[Q] Determine whether measured inhibition meets or exceeds 2% for CCS(=O)(=O)c1ccc(OC)c(Nc2ncc(-c3cccc(F)c3)o2)c1
[A] true

[Q] Determine whether measured inhibition meets or exceeds 2% for COc1ccc(Nc2ncc(-c3ccccc3)o2)cc1OC
[A] true
